# credit: BindingDB's records for patent WO2022098806

Target: Mitogen-activated protein kinase kinase kinase kinase 1 (Homo sapiens)
Experiment: HPK1-SLP76 TR-FRET ASSAY
pIC50: −log10 of the molar value.
measured.endpoint: pIC50

>  <compound>
Cc1c(-c2c(F)c(N)c3cnc(Nc4ccc5c(c4)CN(C)CC54CC4)nc3c2Cl)cnc2c1NCCO2 [WO2022098806, Compound 2-108]

>  <pIC50>
11.00

$$$$

A. CCS(=O)(=O)Cc1ccc(Nc2ncc3c(N)c(F)c(-c4cnc5c(c4C)NCCO5)cc3n2)c(OC)c1 [WO2022098806, Compound 2-89]
B. COc1cc2c(cc1Nc1ncc3ccc(-c4cccc(NCC(C)=O)c4)cc3n1)CN(C)CC2 [WO2022098806, Compound 1-98]
Which one would you say has the larger pIC50 value: A , or B ? Let me know the label of the one you choose. A

====

Target: Mitogen-activated protein kinase kinase kinase kinase 1 (Homo sapiens)
Experiment: HPK1-SLP76 TR-FRET ASSAY
measured.endpoint: IC50 (nM)

Example entries begin here.
>  <compound>
Cc1c(-c2cc3nc(Nc4ccc(CS(=O)(=O)C(C)C)cc4)ncc3c(N)c2F)cnc2c1NCCO2 [WO2022098806, Compound 2-157]

>  <IC50 / nM>
0.07

$$$$
>  <compound>
COc1cc2c(cc1Nc1ncc3ccc(-c4cnccc4Cl)cc3n1)CNCC2 [WO2022098806, Compound 1-37]

>  <IC50 / nM>
28

$$$$
>  <compound>
COc1cc2c(cc1Nc1ncc3c(N)c(F)c(-c4cnc5c(c4C)NCCO5)cc3n1)CN(C(C)C)CC2 [WO2022098806, Compound 2-72]

>  <IC50 / nM>
0.12

$$$$

a. COc1cc2c(cc1Nc1ncc3ccc(N4CC5CCS(=O)(=O)C5C4)cc3n1)CN(C)CC2 (stereo unspecified) [WO2022098806, Compound 3-60]
b. Cc1c(-c2cc3nc(Nc4ccc(S(C)(=O)=O)cc4)ncc3c(N)c2F)cnc2c1NCCO2 [WO2022098806, Compound 2-17]
c. CNCC1CN(c2ccc3cnc(Nc4cc5c(cc4OC)CCN(C)C5)nc3c2)C(=O)O1 (stereo unspecified) [WO2022098806, Compound 3-12]
d. Cc1c(-c2cc3nc(Nc4ccc5c(c4)CN(C)CC5)ncc3c(N)c2F)cnc2nc[nH]c12 [WO2022098806, Compound 2-162]
Sequence the entries by IC50, beginning with the highest number. Form field (ranking): labels in requested order. a, c, d, b
(a: 807 nM, c: 94 nM, d: 0.13 nM, b: 0.09 nM)

====

Biological target: Mitogen-activated protein kinase kinase kinase kinase 1 (Homo sapiens, UniProt Q92918)
Sequence (Q92918 whole entry): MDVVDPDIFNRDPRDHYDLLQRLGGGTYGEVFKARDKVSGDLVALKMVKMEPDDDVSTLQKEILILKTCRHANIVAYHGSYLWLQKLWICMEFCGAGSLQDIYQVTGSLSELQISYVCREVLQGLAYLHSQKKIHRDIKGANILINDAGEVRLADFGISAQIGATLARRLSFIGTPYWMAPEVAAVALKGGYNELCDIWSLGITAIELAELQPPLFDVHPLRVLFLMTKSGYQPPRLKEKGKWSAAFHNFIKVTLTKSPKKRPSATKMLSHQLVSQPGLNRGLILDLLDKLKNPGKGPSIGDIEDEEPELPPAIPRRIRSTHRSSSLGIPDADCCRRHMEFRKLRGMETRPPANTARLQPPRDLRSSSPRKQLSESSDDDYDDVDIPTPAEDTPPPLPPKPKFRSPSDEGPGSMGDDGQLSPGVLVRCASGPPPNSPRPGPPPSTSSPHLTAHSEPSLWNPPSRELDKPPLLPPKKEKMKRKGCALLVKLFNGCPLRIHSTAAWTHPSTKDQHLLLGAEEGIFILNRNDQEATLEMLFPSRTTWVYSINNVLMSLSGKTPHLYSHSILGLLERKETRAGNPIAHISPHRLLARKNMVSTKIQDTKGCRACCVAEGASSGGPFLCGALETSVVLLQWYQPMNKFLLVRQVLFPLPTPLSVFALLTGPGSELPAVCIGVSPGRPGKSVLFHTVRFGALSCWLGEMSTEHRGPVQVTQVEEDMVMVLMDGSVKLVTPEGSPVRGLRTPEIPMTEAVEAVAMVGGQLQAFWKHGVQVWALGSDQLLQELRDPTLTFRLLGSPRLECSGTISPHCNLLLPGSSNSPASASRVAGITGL
Assay: HPK1-SLP76 TR-FRET ASSAY
measured.endpoint: IC50 (nM)

Example entries begin here.
>  <compound>
CNC(=O)c1ccc(Nc2ncc3c(N)c(F)c(-c4cnc5c(c4C)NCCO5)cc3n2)cc1 [WO2022098806, Compound 2-23]

>  <IC50 (nM)>
0.05

$$$$
>  <compound>
Cc1c(-c2cc3nc(Nc4ccc([C@@H](C)S(C)(=O)=O)cc4)ncc3cc2F)cnc2c1NCCO2 [WO2022098806, Compound 1-126]

>  <IC50 (nM)>
0.68

$$$$

P. Cc1c(-c2cc3nc(Nc4ccc5c(c4)CN(C)[C@@H](C)C5)ncc3c(N)c2F)cnc2c1NCCO2 [WO2022098806, Compound 2-85]
Q. Cc1c(-c2cc3nc(Nc4ccc5c(c4)CC(C)(C)N(C)C5)ncc3c(N)c2F)cnc2c1NCCO2 [WO2022098806, Compound 2-126]
Which is greater in IC50, the first item P or the second item Q ? Give the chosen item's label as your response. Q
